Measured pKd, listed per entry.
assay.target: T1, cynomolgus CD8 (captured on the Octet biosensor) (cynomolgus)
T1 construct: Construct not described; also called cyno CD8; cyno CD8a
T1 sequence (P30433 other isoform, or with tags, fused parts or gaps): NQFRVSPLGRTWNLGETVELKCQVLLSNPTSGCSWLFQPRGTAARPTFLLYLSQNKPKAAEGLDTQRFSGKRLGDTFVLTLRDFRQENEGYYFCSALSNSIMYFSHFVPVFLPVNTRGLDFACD
protocol: Octet (BLI); cynomolgus CD8 captured, dipped into multiple concentrations of the one-arm mAb
In simple prose, pKd is minus the logarithm base ten of a concentration in moles per litre.

Consider the worked cases shown below.
binder: XENP26242 (antibody, V domains shown, also called OKT8_H2.165_L1.103 one-arm mAb) VH: QVQLVQSGAEVKKPGASVKVSCKASGFNIKDTYIHWVRQAPGKGLEWMGRIDPDNDETLYASKFQGRVTMTADTSINTAYMELSRLRSDDTAVYYCGRGYGYYYFDHWGQGTTVTVSS VL: AIKMTQSPSSLSASVGDRVTITCRTSRSISKYLAWYQEKPGKTNKLLIYSGSTLQSGIPSRFSGSGSGTDFTLTISSLQPEDFATYYCQQHNENPLTFGAGTKLEIK
pKd: 7.52

binder: XENP26231 (antibody, V domains shown, also called OKT8_H2.154_L1.103 one-arm mAb) VH: QVQLVQSGAEVKKPGASVKVSCKASGFNIKDTYIHWVRQAPGKGLEWMGRIDPDNGETLYASKFQGRVTITADTSINTAYMELSRLRSDDTAVYYCGRGYGKYVFDHWGQGTTVTVSS VL: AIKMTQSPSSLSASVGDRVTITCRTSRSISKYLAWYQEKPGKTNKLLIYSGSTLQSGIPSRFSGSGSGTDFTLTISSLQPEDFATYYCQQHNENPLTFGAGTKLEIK
pKd: 7.02

binder: XENP26241 (antibody, V domains shown, also called OKT8_H2.164_L1.103 one-arm mAb) VH: QVQLVQSGAEVKKPGASVKVSCKASGFNIKDTYIHWVRQAPGKGLEWMGRIDPDNDETLYASKFQGRVTMTADTSINTAYMELSRLRSDDTAVYYCGRGYGKYVFDHWGQGTTVTVSS VL: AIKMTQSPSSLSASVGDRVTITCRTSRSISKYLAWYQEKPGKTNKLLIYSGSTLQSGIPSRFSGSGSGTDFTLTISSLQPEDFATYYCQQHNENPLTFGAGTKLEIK
pKd: 7.17

Look at this binder and give its reported pKd. XENP26009 (antibody, V domains shown, also called OKT8_H2.152_L1.103 one-arm mAb) VH: QVQLVQSGAEVKKPGASVKVSCKASGFNIKDTYIHWVRQAPGKGLEWMGRIDPDNGETLYASKFQGRVTITADTSINTAYMELSRLRSDDTAVYYCGRGYGYYVFDHWGQGTTVTVSS VL: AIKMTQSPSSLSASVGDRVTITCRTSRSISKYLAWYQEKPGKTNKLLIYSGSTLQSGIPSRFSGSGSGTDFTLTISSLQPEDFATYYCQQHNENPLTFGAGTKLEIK 7.11

The reported measurements were obtained from patent US12448423.
